Where do the numbers come from? From PubChem BioAssay (NCI).

- Tested on: HCT-116 colon
- ASSAY METHOD TEXT: NCI tumour cell line growth inhibition, 48 h
Task for the reader: assign each of the following compounds its reported TGI.

Before answering, review these 2 worked examples.
[[record]]
compound = "CC12CC(=O)C3C(CCC4=CC(=O)CCC43C)C1CC=C2CC(=O)O (stereo not given)"
target = "HCT-116 colon"
quantity_name = "TGI"
recorded_measurement = "> 100 µM"

[[record]]
compound = "CCOC(=O)c1c2ccc(/C=C/c3ccccc3)ccc-2c(C(=O)OCC)c1N"
target = "HCT-116 colon"
quantity_name = "TGI"
recorded_measurement = "> 100 µM"


Hi there! I need TGI for each item below, if you can.
1. COC(=O)c1ccc(/C=C2\Oc3cc(O)ccc3C2=O)cc1
2. C[C@H](c1ccccc1)N(CCC(=O)O)C(=O)CCN(C(=O)CCN(C(=O)CCN[C@H](C)c1ccccc1)[C@H](C)c1ccccc1)[C@H](C)c1ccccc1
3. CNCCNc1nc2ccccc2c2c(=O)c3cccc(C)c3sc12
4. O=C(N/N=C/c1ccc(Cl)cc1)c1ccccc1Nc1ccccc1C(=O)N/N=C/c1ccc(Cl)cc1
5. Cc1cc(-c2cscn2)c(O)c([N+](=O)[O-])c1

Response:
["> 100 µM", "> 100 µM", "1.57 µM", "> 100 µM", "> 100 µM"]

Hi there! I need TGI for each item below, if you can.
1. Fc1ccc(-c2nn3c(COc4ccc(Cl)cc4Cl)nnc3s2)cc1Oc1ccccc1
2. Cc1ccc(S(=O)(=O)N/N=C2\CC(C)OC3=C2CCCCCC3)cc1 (stereo not given)

Response:
25.9 µM
30.4 µM

Sample Fc1ccc(-c2c(-c3ccncc3)[nH]c3nccnc23)cc1 , system: HCT-116 colon. Its TGI is > 22.1 µM
